Data origin, for the record: patent US9073830B2

# study.system: mouse 11β-HSD1 (Mus musculus)
# Construct: 100 ug/ml human/mouse liver microsomes; from tissue; host or cells: mouse liver microsomes
# Sequence (P50172 whole entry): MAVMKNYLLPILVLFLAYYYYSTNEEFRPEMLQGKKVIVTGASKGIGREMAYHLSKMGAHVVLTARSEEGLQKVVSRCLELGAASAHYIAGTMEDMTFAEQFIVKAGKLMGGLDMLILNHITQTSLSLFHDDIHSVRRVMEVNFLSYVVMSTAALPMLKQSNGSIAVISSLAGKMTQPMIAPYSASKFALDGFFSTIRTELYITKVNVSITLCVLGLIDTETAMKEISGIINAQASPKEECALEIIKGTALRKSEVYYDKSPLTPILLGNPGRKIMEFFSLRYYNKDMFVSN
# assay.remarks: Enzyme activity analysis on mouse 11β-HSD1 (HTRF cortisol, liver microsomes)
# Format: biochemical
# assay.context: second value of cell
parameter: IC50 (µM)
Answers are plain numbers, in µM.

Some compounds with recorded IC50:
CC(C)(NS(=O)(=O)c1ccc([N+](=O)[O-])cc1)C(=O)NC1C2CC3CC(C2)CC1C3 (stereo not drawn) = 1.7
CC(C)(NS(=O)(=O)c1ccccc1Cl)C(=O)NC1C2CC3CC1CC(C(N)=O)(C3)C2 (stereo not drawn) = 0.018
Cc1ccc(S(=O)(=O)NC(C)(C)C(=O)NC2C3CC4CC(C3)CC2C4)cc1Cl (stereo not drawn) = 0.686
CC(C)(NS(=O)(=O)c1cc(Cl)cc(Br)c1)C(=O)NC1C2CC3CC1CC(C(N)=O)(C3)C2 (stereo not drawn) = 0.168
NC(=O)C12CC3CC(C1)C(NC(=O)C1(NS(=O)(=O)c4ccccc4[N+](=O)[O-])CCC1)C(C3)C2 (stereo not drawn) = 0.509
COc1ccc(S(=O)(=O)NC(C)(C)C(=O)NC2C3CC4CC2CC(O)(C4)C3)cc1 (stereo not drawn) = 0.631
CCN(C(C)(C)C(=O)NC1C2CC3CC1CC(C(N)=O)(C3)C2)S(=O)(=O)c1ccccc1[N+](=O)[O-] (stereo not drawn) = 0.974
COc1ccc(S(=O)(=O)NC2(C(=O)NC3C4CC5CC3CC(C(N)=O)(C5)C4)CCC2)cc1F (stereo not drawn) = 0.565

Give IC50 for each of the items listed below.
1. CN(C(C)(C)C(=O)NC1C2CC3CC1CC(O)(C3)C2)S(=O)(=O)c1ccccc1N (stereo not drawn)
2. NC(=O)C12CC3CC(C1)C(NC(=O)C1(NS(=O)(=O)c4ccccc4Br)CCCCC1)C(C3)C2 (stereo not drawn)
3. Cc1ccc(S(=O)(=O)NC(C)(C)C(=O)NC2C3CC4CC(C3)CC2C4)cc1F (stereo not drawn)
4. Cc1ccc(S(=O)(=O)NC(C)(C)C(=O)NC2C3CC4CC2CC(C(N)=O)(C4)C3)cc1Cl (stereo not drawn)
5. CCN(C(C)(C)C(=O)NC1C2CC3CC1CC(C(N)=O)(C3)C2)S(=O)(=O)c1ccccc1Cl (stereo not drawn)
6. COc1cc([N+](=O)[O-])ccc1S(=O)(=O)NC(C)(C)C(=O)NC1C2CC3CC1CC(C(N)=O)(C3)C2 (stereo not drawn)

**A:**
[0.083, 0.048, 1.12, 0.037, 0.098, 0.22]

----------
Would you mind telling me the reported log10(IC50) of each entry?
# study.system: human 11β-HSD1 (Homo sapiens)
# Construct: 100 ug/ml human/mouse liver microsomes; from tissue; host or cells: human liver microsomes
# Sequence (P28845 whole entry): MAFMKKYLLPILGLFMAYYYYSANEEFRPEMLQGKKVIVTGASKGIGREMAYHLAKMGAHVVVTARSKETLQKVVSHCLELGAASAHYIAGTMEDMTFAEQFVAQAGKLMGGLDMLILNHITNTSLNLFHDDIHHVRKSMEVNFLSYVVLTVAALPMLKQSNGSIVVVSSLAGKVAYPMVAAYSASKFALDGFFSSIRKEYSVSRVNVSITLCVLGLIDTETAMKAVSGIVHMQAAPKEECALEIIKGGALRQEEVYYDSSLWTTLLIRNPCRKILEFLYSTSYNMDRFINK
# assay.remarks: Enzyme activity analysis on human 11β-HSD1 (HTRF cortisol, liver microsomes)
# Assay type: biochemical
# assay.context: first value of cell
Hi team, quick reminder: these entries are log10 of IC50 (µM).

NC(=O)C12CC3CC(C1)C(NC(=O)C1(NS(=O)(=O)c4ccc(Cl)cc4Cl)CCC1)C(C3)C2 (stereo not drawn) [compound 153] = -1.24
CN(C(C)(C)C(=O)NC1C2CC3CC1CC(C(N)=O)(C3)C2)S(=O)(=O)c1cccc(Cl)c1Cl (stereo not drawn) [compound 198] = -2.10
Cc1ccc(S(=O)(=O)NC2(C(=O)NC3C4CC5CC3CC(C(N)=O)(C5)C4)CCC2)cc1[N+](=O)[O-] (stereo not drawn) [compound 150] = -0.19

Give me log10(IC50) for each of these compounds, listed below.
1. CC(C)(NS(=O)(=O)c1ccc(Br)cc1OC(F)(F)F)C(=O)NC1C2CC3CC1CC(C(N)=O)(C3)C2 (stereo not drawn) [compound 100]
2. CC(C)(NS(=O)(=O)c1ccc(F)c(Cl)c1)C(=O)NC1C2CC3CC(C2)CC1C3 (stereo not drawn) [compound 54]
3. CC(C)(NS(=O)(=O)c1cc(C(F)(F)F)ccc1C(F)(F)F)C(=O)NC1C2CC3CC1CC(C(N)=O)(C3)C2 (stereo not drawn) [compound 109]
4. NC(=O)C12CC3CC(C1)C(NC(=O)C1(NS(=O)(=O)c4cc(F)ccc4F)CCC1)C(C3)C2 (stereo not drawn) [compound 163]
5. CN(C(C)(C)C(=O)NC1C2CC3CC1CC(C(N)=O)(C3)C2)S(=O)(=O)c1cccc2cccnc12 (stereo not drawn) [compound 188]
6. CCCc1ccc(S(=O)(=O)NC(C)(C)C(=O)NC2C3CC4CC2CC(C(N)=O)(C4)C3)cc1 (stereo not drawn) [compound 99]

**A:**
-1.74
-0.65
-1.35
-0.43
-1.89
-1.33

Hey, quick one: what's log10(IC50) for each of these?
1. Cc1c(Cl)cccc1S(=O)(=O)N(C)C(C)(C)C(=O)NC1C2CC3CC1CC(O)(C3)C2 (stereo not drawn) [compound 204]
2. CC(C)(NS(=O)(=O)Cc1ccc(Cl)cc1)C(=O)NC1C2CC3CC(C2)CC1C3 (stereo not drawn) [compound 33]
3. CC(C)(NS(=O)(=O)c1ccc(C(=O)NC2C3CC4CC(C3)CC2C4)cc1Cl)C(=O)NC1C2CC3CC(C2)CC1C3 (stereo not drawn) [compound 44]
4. NC(=O)C12CC3CC(C1)C(NC(=O)C1(NS(=O)(=O)c4ccccc4)CCC1)C(C3)C2 (stereo not drawn) [compound 148]
5. O=C(NC1C2CC3CC(C2)CC1C3)C1(NS(=O)(=O)c2ccccc2Br)CCC1 (stereo not drawn) [compound 138]
6. CC(C)(NS(=O)(=O)c1ccccc1Cl)C(=O)NC1C2CC3CC1CC(C(N)=O)(C3)C2 (stereo not drawn) [compound 83]

**A:**
1. -2.40
2. -1.19
3. -0.32
4. -0.79
5. -0.95
6. -2.05

----------
# study.system: mouse 11β-HSD1 (Mus musculus)
# Construct: 100 ug/ml human/mouse liver microsomes; from tissue; host or cells: mouse liver microsomes
# assay.remarks: Enzyme activity analysis on mouse 11β-HSD1 (HTRF cortisol, liver microsomes)
# Format: biochemical
# assay.context: second value of cell
# Protocol: After culturing at 37° C. for 2 hours, 5 μl of cryptate-labeled anti-cortisol antibody and 5 μl of d2-labeled cortisol were added thereto. After further culturing at room temperature for 2 hours, a homogeneous time-resolved fluorescence (HTRF, Cisbio) signal was measured. From each analysis, based on a standard curve calculated using cortisols of several known concentrations, an amount of produced cortisol was tested. […]
What IC50 was measured for each of the following?
Give bare numbers, in µM.

The cases that follow already have their IC50 on record.
Cc1c(Cl)cccc1S(=O)(=O)N(C)C(C)(C)C(=O)NC1C2CC3CC1CC(C(N)=O)(C3)C2 (stereo not drawn) [compound 191] = 0.006
NC(=O)C12CC3CC(C1)C(NC(=O)C1(NS(=O)(=O)c4ccccc4C(F)(F)F)CCCCC1)C(C3)C2 (stereo not drawn) [compound 181] = 0.132

Field: IC50. Fill in for each record below.
1. NC(=O)C12CC3CC(C1)C(NC(=O)C1(NS(=O)(=O)c4ccccc4C(F)(F)F)CCC1)C(C3)C2 (stereo not drawn) [compound 157]
2. CC(C)(NS(=O)(=O)c1ccc(F)cc1)C(=O)NC1C2CC3CC(C2)CC1C3 (stereo not drawn) [compound 2]
3. CC(C)(NS(=O)(=O)c1ccc(OC(F)F)cc1)C(=O)NC1C2CC3CC1CC(C(N)=O)(C3)C2 (stereo not drawn) [compound 93]
4. CC(C)(NS(=O)(=O)c1ccc(-c2ccccc2)cc1)C(=O)NC1C2CC3CC(C2)CC1C3 (stereo not drawn) [compound 42]

**A:**
1: 0.41; 2: 0.888; 3: 0.571; 4: 1.7

Can you give me IC50 for all of these, one by one?
1. Cc1ccccc1S(=O)(=O)N(C)C(C)(C)C(=O)NC1C2CC3CC1CC(O)(C3)C2 (stereo not drawn) [compound 207]
2. CCc1ccc(S(=O)(=O)NC(C)(C)C(=O)NC2C3CC4CC(C3)CC2C4)cc1 (stereo not drawn) [compound 53]
3. CCCc1ccc(S(=O)(=O)NC(C)(C)C(=O)NC2C3CC4CC2CC(C(N)=O)(C4)C3)cc1 (stereo not drawn) [compound 99]
4. Cc1ccc(S(=O)(=O)NC(C)(C)C(=O)NC2C3CC4CC2CC(C(N)=O)(C4)C3)cc1F (stereo not drawn) [compound 92]

**A:**
1. 0.107
2. 0.673
3. 0.124
4. 0.077

For each of the compounds below, note its IC50.
1. CN(C(C)(C)C(=O)NC1C2CC3CC1CC(C(N)=O)(C3)C2)S(=O)(=O)c1c(Cl)cccc1Cl (stereo not drawn) [compound 192]
2. CC(C)(NS(=O)(=O)Cc1ccc(Cl)cc1)C(=O)NC1C2CC3CC(C2)CC1C3 (stereo not drawn) [compound 33]
3. CC(C)(NS(=O)(=O)c1ccc(Br)cc1OC(F)(F)F)C(=O)NC1C2CC3CC1CC(C(N)=O)(C3)C2 (stereo not drawn) [compound 100]
4. CC(C)(NS(=O)(=O)c1ccc(Cl)c(Cl)c1Cl)C(=O)NC1C2CC3CC(C2)CC1C3 (stereo not drawn) [compound 51]

**A:**
1. 0.002
2. 1.67
3. 0.21
4. 1.3
